Reference source: patent US20240116893A1

biological target: MLK1 (Homo sapiens (Human), UniProt P80192)
Sequence (P80192 whole entry): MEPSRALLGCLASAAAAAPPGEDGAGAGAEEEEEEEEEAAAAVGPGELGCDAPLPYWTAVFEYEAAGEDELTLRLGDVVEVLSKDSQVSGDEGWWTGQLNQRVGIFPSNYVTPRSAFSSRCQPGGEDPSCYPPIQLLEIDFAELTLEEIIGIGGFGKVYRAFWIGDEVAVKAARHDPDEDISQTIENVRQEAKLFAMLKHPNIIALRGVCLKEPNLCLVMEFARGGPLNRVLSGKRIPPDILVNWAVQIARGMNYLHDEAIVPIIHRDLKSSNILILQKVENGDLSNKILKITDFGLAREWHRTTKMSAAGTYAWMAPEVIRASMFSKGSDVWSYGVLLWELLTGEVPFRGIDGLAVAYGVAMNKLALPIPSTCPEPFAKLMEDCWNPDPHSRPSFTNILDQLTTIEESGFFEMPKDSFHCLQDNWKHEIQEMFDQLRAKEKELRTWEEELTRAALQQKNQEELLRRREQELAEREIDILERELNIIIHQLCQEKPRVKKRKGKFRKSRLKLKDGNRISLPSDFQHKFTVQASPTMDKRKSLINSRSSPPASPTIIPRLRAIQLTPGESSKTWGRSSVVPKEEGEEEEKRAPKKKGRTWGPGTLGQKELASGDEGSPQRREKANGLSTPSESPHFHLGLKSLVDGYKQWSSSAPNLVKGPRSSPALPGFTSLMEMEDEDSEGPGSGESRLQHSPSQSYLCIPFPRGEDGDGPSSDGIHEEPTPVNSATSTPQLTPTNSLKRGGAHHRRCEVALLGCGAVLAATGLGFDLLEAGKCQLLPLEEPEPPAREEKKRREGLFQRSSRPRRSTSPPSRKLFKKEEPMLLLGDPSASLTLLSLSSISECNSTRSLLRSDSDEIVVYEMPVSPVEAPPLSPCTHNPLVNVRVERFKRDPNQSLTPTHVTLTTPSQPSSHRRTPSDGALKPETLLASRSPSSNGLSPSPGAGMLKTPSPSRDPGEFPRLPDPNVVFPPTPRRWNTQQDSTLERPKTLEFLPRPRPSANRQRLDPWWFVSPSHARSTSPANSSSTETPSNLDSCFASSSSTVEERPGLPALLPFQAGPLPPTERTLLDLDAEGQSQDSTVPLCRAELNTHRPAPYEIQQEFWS

{"Smi": "CCCn1/c(=N/C(=O)c2cccc(C(N)=O)c2)[nH]c2ccc(CN3CCCCC3)cc21", "IC50, µM": 5.59}

###

biological target: CAMKKβ-1 (Homo sapiens (Human))
Sequence (Q96RR4 whole entry): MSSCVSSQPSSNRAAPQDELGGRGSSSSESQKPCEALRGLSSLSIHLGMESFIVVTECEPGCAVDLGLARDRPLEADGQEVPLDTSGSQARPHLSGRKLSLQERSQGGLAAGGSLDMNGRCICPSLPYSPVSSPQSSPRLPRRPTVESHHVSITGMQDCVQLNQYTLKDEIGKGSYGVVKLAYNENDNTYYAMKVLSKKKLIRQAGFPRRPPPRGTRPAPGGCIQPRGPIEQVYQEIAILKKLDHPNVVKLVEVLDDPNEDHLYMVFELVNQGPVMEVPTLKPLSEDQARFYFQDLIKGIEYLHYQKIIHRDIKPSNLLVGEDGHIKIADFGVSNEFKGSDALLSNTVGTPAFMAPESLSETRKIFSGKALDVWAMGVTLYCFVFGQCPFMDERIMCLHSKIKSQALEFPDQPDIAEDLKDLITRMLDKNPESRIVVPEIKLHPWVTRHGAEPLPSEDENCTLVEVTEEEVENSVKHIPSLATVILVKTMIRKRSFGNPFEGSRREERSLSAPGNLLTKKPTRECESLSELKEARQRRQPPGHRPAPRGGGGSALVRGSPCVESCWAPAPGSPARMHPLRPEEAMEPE
pIC50: −log10 of the molar value.

{"Smi": "CCCn1/c(=N/C(=O)c2cccc(C(N)=O)c2)[nH]c2ccc(CN3CCCCC3)cc21", "Assayed System": "CAMKKβ-1 (Homo sapiens (Human))", "pIC50": 5.89}

###

molecular target: TAK1 (Homo sapiens (Human), UniProt O43318); experiment: Dose-response of top 10 kinases (FIG. 1A); type: biochemical; conditions: read-out: half maximal inhibitory concentration (IC50) TAK1
Sequence (O43318 1-303): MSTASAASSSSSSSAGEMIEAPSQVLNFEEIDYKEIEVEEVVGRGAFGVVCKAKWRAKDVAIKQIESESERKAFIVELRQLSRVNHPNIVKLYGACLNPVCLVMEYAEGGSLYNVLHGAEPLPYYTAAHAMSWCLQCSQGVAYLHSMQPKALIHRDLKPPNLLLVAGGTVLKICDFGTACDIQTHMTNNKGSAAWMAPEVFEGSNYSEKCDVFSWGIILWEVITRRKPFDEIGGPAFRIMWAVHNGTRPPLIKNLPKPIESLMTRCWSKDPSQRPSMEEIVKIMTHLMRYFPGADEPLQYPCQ
Sequence (Q15750 437-504 partner): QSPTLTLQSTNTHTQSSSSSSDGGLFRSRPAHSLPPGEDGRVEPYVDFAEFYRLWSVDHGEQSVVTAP
pIC50: −log10 of the molar value.
Recorded Metric: pIC50

{"Smi": "CCCn1/c(=N/C(=O)c2cccc(C(N)=O)c2)[nH]c2ccc(CN3CCCCC3)cc21", "Recorded Metric": "pIC50", "Value": 8.10}
